biological target: N-type calcium channel α1B (Cav2.2), β3 and α2δ subunits (Homo sapiens, UniProt Q00975); assay: Functional assay, antagonism of N-type calcium channel (FDSS calcium mobilization response to KCl depolarization); conditions: HEK stable cell line; 50 mM KCl depolarization; six-point concentration-response
Sequence (Q00975 whole entry): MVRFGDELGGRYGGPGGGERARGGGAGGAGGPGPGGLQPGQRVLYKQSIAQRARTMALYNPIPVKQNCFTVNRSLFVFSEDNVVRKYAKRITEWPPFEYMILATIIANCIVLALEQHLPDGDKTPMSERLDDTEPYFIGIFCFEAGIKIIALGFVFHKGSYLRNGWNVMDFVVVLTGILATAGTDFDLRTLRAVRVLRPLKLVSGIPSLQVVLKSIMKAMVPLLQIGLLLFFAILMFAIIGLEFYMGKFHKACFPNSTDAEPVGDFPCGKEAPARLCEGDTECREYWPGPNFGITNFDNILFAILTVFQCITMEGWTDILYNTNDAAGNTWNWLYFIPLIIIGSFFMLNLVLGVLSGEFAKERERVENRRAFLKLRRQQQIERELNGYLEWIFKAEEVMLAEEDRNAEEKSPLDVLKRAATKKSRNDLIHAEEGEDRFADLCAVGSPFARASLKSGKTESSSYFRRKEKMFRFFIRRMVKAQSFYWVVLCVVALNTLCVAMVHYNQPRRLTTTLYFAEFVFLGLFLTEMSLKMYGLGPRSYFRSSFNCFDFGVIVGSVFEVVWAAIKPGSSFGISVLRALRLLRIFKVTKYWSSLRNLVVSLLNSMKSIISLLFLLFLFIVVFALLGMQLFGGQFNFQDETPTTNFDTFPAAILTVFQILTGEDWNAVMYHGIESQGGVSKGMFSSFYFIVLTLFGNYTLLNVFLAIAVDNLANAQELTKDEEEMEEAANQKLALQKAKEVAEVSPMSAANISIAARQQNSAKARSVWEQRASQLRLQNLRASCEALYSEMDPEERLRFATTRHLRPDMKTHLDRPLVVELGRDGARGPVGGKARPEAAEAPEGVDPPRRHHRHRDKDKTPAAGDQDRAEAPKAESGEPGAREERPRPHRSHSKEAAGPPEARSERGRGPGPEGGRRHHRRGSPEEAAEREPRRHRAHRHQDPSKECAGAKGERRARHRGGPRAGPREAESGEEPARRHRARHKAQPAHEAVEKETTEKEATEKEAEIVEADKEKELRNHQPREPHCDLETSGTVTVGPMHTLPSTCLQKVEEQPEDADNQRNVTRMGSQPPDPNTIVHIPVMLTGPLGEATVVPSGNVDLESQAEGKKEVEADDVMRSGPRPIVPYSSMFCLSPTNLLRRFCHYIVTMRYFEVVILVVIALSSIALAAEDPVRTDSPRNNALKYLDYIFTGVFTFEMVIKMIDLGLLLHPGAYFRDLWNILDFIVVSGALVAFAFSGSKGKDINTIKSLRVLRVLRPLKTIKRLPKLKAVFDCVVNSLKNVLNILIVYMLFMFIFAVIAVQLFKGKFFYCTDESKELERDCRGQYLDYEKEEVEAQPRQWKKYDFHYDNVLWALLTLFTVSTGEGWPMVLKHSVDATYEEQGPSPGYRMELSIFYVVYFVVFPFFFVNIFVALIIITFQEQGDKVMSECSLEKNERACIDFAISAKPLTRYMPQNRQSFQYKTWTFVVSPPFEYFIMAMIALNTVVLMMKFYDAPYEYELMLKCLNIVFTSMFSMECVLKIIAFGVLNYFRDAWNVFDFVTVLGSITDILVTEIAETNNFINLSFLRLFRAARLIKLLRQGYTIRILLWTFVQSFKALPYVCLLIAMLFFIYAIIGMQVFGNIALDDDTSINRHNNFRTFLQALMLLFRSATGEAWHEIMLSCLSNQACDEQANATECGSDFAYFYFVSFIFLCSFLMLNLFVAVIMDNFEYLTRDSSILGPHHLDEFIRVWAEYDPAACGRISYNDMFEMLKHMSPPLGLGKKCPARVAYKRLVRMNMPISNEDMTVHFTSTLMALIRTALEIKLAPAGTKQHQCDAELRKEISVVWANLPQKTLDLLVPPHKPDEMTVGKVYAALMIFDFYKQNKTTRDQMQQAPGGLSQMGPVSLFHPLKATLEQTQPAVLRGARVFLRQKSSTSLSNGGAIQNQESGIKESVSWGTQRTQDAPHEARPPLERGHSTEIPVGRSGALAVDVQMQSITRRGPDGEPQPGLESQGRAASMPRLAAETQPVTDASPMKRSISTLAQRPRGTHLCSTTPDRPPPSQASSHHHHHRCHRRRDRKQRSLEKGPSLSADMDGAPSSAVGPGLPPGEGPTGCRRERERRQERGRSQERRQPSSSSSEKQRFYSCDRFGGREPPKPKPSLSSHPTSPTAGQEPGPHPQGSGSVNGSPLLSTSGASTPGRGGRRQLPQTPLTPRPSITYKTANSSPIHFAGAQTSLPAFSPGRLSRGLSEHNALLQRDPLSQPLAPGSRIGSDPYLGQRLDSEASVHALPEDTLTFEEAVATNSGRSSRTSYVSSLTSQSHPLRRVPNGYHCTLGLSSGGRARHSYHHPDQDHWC
Sequence (P54284 whole entry partner): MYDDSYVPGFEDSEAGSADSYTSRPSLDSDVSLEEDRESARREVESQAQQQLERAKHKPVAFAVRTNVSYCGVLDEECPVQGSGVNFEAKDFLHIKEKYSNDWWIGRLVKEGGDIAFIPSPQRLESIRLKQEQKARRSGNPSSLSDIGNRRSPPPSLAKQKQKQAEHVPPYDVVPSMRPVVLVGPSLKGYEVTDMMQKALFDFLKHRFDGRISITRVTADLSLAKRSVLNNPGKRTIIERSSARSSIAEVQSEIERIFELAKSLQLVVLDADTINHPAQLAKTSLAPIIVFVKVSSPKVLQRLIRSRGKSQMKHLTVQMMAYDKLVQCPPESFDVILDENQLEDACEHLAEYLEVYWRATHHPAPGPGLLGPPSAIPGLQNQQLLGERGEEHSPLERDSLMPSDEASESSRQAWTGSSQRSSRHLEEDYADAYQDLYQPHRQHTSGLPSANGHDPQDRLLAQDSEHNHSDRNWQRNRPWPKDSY
Sequence (P54289 25-956 partner limits assumed): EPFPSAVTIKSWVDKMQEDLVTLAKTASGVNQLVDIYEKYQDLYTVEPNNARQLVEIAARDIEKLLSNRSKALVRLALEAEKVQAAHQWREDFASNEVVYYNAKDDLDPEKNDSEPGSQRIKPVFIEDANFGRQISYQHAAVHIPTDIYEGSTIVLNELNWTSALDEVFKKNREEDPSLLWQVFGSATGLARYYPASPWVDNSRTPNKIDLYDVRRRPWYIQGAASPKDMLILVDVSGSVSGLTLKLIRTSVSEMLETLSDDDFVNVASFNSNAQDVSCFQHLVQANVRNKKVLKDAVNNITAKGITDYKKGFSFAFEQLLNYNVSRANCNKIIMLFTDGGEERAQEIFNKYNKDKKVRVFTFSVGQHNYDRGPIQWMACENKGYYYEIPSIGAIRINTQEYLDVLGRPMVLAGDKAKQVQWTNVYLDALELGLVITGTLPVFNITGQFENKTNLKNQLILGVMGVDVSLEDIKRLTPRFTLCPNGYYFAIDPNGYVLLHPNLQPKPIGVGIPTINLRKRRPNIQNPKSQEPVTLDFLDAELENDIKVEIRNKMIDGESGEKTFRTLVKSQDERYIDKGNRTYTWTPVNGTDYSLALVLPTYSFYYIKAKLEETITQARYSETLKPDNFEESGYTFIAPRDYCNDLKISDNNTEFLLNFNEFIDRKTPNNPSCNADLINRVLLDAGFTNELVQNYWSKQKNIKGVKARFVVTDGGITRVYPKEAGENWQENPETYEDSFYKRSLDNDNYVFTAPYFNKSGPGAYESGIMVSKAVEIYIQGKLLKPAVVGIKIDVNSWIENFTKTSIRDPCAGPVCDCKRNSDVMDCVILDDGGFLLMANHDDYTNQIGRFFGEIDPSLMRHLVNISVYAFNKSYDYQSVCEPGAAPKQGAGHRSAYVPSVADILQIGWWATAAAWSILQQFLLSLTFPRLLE
Sequence (P54289 957-1103 partner limits assumed): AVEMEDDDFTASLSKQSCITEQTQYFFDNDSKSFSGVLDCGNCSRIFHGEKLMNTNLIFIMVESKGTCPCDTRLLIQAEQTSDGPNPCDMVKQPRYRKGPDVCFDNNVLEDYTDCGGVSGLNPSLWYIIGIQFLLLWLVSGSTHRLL
pIC50: −log10 of the molar value.
QUANTITY_NAME: pIC50

INSERT INTO results (structure, quantity_name, test_value) VALUES
  ('COc1ccccc1-n1nc2c(c1-c1ccc(Cl)cc1)CN(S(=O)(=O)N1CCOCC1)C2', 'pIC50', 8.70),
  ('COc1cc(C)ccc1-n1nc2c(c1-c1ccc(Cl)cc1)CN(S(C)(=O)=O)C2', 'pIC50', 7.33),
  ('COc1ccccc1-n1nc2c(c1-c1ccc(Cl)cc1)CN(S(=O)(=O)N1CCCCCC1)C2', 'pIC50', 8.15),
  ('COc1ccccc1-n1nc2c(c1-c1ccc(Cl)cc1)CN(S(=O)(=O)N1CCCC1)C2', 'pIC50', 8.70),
  ('CCc1ccccc1-n1nc2c(c1-c1ccc(Cl)cc1)CN(S(=O)(=O)C(F)(F)F)C2', 'pIC50', 6.82),
  ('CC(C)Oc1ccccc1-n1nc2c(c1-c1ccc(Cl)cc1)CN(S(=O)(=O)N(C)C)C2', 'pIC50', 8.52),
  ('CCOc1ccccc1-n1nc2c(c1-c1ccc(Cl)cc1)CN(S(C)(=O)=O)C2', 'pIC50', 8.70),
  ('CC(C)(C)OC(=O)NCC(=O)N1Cc2nn(-c3ccccc3C(F)(F)F)c(-c3ccc(Cl)cc3)c2C1', 'pIC50', 6.32);
